I'd appreciate it if you could supply Population Healthy Nuclei (%) values for the items below.
system: HEK-293T; assay: Multiplex assay against HEK293T; format: toxicity, cell-based; conditions: human, 48 h, 1 µM, compound concentration 1 uM, replicate 2
Give bare numbers, in %.

smiles.representation: CC(C)[C@H](CO)Nc1nc(Nc2cccc(Cl)c2)c2ncn(C(C)C)c2n1
target.under.test: HEK-293T
measured.metric: Population Healthy Nuclei (%)
measured.result: 77

smiles.representation: CC(C)c1cc(Nc2nc(N3CCC[C@H](N)C3)ncc2C(N)=O)cc(C(C)C)n1
target.under.test: HEK-293T
measured.metric: Population Healthy Nuclei (%)
measured.result: 55

smiles.representation: CN(c1cc(C(F)(F)F)nc(OCCC(=O)O)n1)c1cccc2c1CCC2
target.under.test: HEK-293T
measured.metric: Population Healthy Nuclei (%)
measured.result: 84

Fill in Population Healthy Nuclei (%) for each of the 2 compounds listed.
1. CC(/C=C1\SC(=S)N(CCCC(=O)Nc2ccc(C(=O)O)c(O)c2)C1=O)=C\c1ccccc1
2. CCCCN(CC)c1nc(C)nc2c1c(C)cn2-c1c(C)cc(C)cc1C.Cl

Result ::
1. 83
2. 82

====

Could you please report measured Total Cell Count for the items listed next?
system: HEK-293T; test: Multiplex assay against HEK293T; assay type: toxicity, cell-based; settings: human, 12 h, 1 µM, compound concentration 1 uM, replicate 1
One number for each entry.

Below are worked cases with known answers.
compound: CC[C@@H]1C(=O)N(C)c2cnc(Nc3ccc(C(=O)NC4CCN(C)CC4)cc3OC)nc2N1C1CCCC1
target.under.test: HEK-293T
measured.result: 578

compound: CCOc1ccn(-c2ccc(F)cc2)c(=O)c1C(=O)Nc1ccc(Oc2ccnc(N)c2Cl)c(F)c1
target.under.test: HEK-293T
measured.result: 624

compound: CN1C(=O)[C@@H](NC(=O)c2cc3ccccc3[nH]2)N=C(c2ccccc2)c2ccccc21 [DEVAZEPIDE]
target.under.test: HEK-293T
measured.result: 314

compound: CCCCCNC(=N)N/N=C/c1c[nH]c2ccc(OC)cc12.O=C(O)/C=C\C(=O)O [TEGASEROD MALEATE]
target.under.test: HEK-293T
measured.result: 192

compound: Cl.NC[C@@H]1O[C@H](C23CC4CC(CC(C4)C2)C3)Cc2c1ccc(O)c2O
target.under.test: HEK-293T
measured.result: 321

compound: CC(C)[C@H](CO)Nc1nc(Nc2cccc(Cl)c2)c2ncn(C(C)C)c2n1
target.under.test: HEK-293T
measured.result: 256

List the reported Total Cell Count of each compound below.
1. NC(=O)c1ccc2nc(-c3ccc(C4(N)CCC4)cc3)c(-c3ccccc3)n2n1
2. CC(Cc1ccc(O)c(O)c1)C(C)Cc1ccc(O)c(O)c1 (configuration not stated) [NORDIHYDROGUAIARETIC ACID]
3. CC[C@H](Nc1ncnc2[nH]cnc12)c1nc2cccc(F)c2c(=O)n1-c1ccccc1
4. Cc1ccc(S(=O)(=O)NC2c3ccccc3Oc3ccccc32)cc1
5. CN(c1cc(C(F)(F)F)nc(OCCC(=O)O)n1)c1cccc2c1CCC2

Result ::
688
150
588
362
189

====

system: Fibroblast; experiment: Multiplex assay against human fibroblast; assay type: toxicity, cell-based; details: 24 h, 10 µM, compound concentration 10 uM, replicate 1
measured.metric: Total Cell Count

Consider the reported Total Cell Count for these molecules:
molecule: CC[C@@H]1C(=O)N(C)c2cnc(Nc3ccc(C(=O)NC4CCN(C)CC4)cc3OC)nc2N1C1CCCC1 [BI-2536]
Total Cell Count: 376
//
molecule: CCCc1cc(C)[nH]c(=O)c1CNC(=O)c1cc(-c2ccc(N3CCN(C(C)C)CC3)nc2)cc2c1cnn2C(C)C
Total Cell Count: 199

Report Total Cell Count for every entry below.
1. CCCCCNC(=N)N/N=C/c1c[nH]c2ccc(OC)cc12.O=C(O)/C=C\C(=O)O [TEGASEROD MALEATE]
2. N#CCNC(=O)c1ccc(-c2ccnc(Nc3ccc(N4CCOCC4)cc3)n2)cc1 [MOMELOTINIB]

Result ::
1: 133; 2: 147

Need Total Cell Count for each of these molecules.
1. CCOC(=O)CCNc1cc(N2CCc3ccccc3CC2)nc(-c2ccccn2)n1
2. CCOc1ccn(-c2ccc(F)cc2)c(=O)c1C(=O)Nc1ccc(Oc2ccnc(N)c2Cl)c(F)c1 [BMS-777607]
3. CC[C@@]1(O)C(=O)OCc2c1cc1n(c2=O)Cc2cc3ccccc3nc2-1 [CAMPTOTHECIN]
4. Oc1cccc(-c2nc(N3CCOCC3)c3oc4ncccc4c3n2)c1 [PI-103]
5. CN1C(=O)[C@@H](NC(=O)c2cc3ccccc3[nH]2)N=C(c2ccccc2)c2ccccc21 [DEVAZEPIDE]

Result ::
1: 180; 2: 214; 3: 201; 4: 111; 5: 108

Value source: ChEMBL document CHEMBL4689842
